Test system: upland rice (Oryza sp., var. Tebonnet, RICE)
Assay: Post-emerge test, crop safety
Format: in vivo
Conditions: 63 g ai/ha; phytotoxicity rating 0-100 (0 no damage, 100 complete death), 14 days after application
Threshold 30: Post-emerge Herbicidal Activity RICE (crop damage) strictly smaller gives Met, otherwise Not met.

Criterion: Post-emerge Herbicidal Activity RICE (crop damage) strictly below 30. Is it met by COc1c(Cl)cc(F)c(-n2c(=O)cc(C(F)(F)F)n(C)c2=O)c1NC(=O)CC#N ?
Met

Criterion: Post-emerge Herbicidal Activity RICE (crop damage) strictly below 30. Is it met by CCOc1c(Cl)cc(F)c(-n2c(=O)cc(C(F)(F)F)n(C)c2=O)c1N ?
Met

Criterion: Post-emerge Herbicidal Activity RICE (crop damage) strictly below 30. Is it met by CCc1ccc(C(=O)Nc2c(OCC#N)c(Cl)cc(F)c2-n2c(=O)cc(C(F)(F)F)n(C)c2=O)cc1 ?
Not met

Criterion: Post-emerge Herbicidal Activity RICE (crop damage) strictly below 30. Is it met by CCOC(=O)C(C)Nc1cc(Cl)cc(F)c1-n1c(=O)cc(C(F)(F)F)n(C)c1=O (stereo not shown) ?
Not met

Criterion: Post-emerge Herbicidal Activity RICE (crop damage) strictly below 30. Is it met by C=Cc1ccc(C(=O)Nc2c(OC)c(Cl)cc(F)c2-n2c(=O)cc(C(F)(F)F)n(C)c2=O)cc1 ?
Not met

Criterion: Post-emerge Herbicidal Activity RICE (crop damage) strictly below 30. Is it met by CCn1c(C(F)(F)F)cc(=O)n(-c2c(F)cc(Cl)c(OC)c2N)c1=O ?
Met

Others:
Criterion: Post-emerge Herbicidal Activity RICE (crop damage) strictly below 30. Is it met by COc1c(Cl)cc(F)c(-n2c(=O)cc(C(F)(F)F)n(C)c2=O)c1NS(=O)(=O)c1ccc(C)cc1 ?
Met

Criterion: Post-emerge Herbicidal Activity RICE (crop damage) strictly below 30. Is it met by Cn1c(C(F)(F)F)cc(=O)n(-c2c(F)cc(Cl)c(OCc3ccccc3)c2N)c1=O ?
Met

###

Test system: upland rice (Oryza sp., var. Tebonnet, RICE)
Test: Post-emerge test, crop safety
Type: in vivo
Settings: 250 g ai/ha; phytotoxicity rating 0-100 (0 no damage, 100 complete death), 14 days after application
Label scheme for Post-emerge Herbicidal Activity RICE (crop damage): low range: < 10; mid range: ≥ 10 and < 40; high range: ≥ 40

Look over these answered cases.
For COc1c(Cl)cc(F)c(-n2c(=O)cc(C(F)(F)F)n(C)c2=O)c1NC(=O)c1ccc(C)cc1 [2-24] , which Post-emerge Herbicidal Activity RICE (crop damage) bin applies?
high range

For CCOC(=O)C(C)Nc1cc(OC(F)F)cc(F)c1-n1c(=O)cc(C(F)(F)F)n(C)c1=O (stereo not shown) [Compound 1-53] , which Post-emerge Herbicidal Activity RICE (crop damage) bin applies?
high range

For COC(=O)C=CCOc1c(Cl)cc(F)c(-n2c(=O)cc(C(F)(F)F)n(C)c2=O)c1N [Compound 1-20] , which Post-emerge Herbicidal Activity RICE (crop damage) bin applies?
high range

For C=CC(=O)N(C(=O)C=C)c1c(OC)c(Cl)cc(F)c1-n1c(=O)cc(C(F)(F)F)n(C)c1=O [2-4] , which Post-emerge Herbicidal Activity RICE (crop damage) bin applies?
low range

For COc1c(Cl)cc(F)c(-n2c(=O)cc(C(F)(F)F)n(C)c2=O)c1N(C(=O)C1CC1)C(=O)C1CC1 [2-18] , which Post-emerge Herbicidal Activity RICE (crop damage) bin applies?
low range

For COc1c(Cl)cc(F)c(-n2c(=O)cc(C(F)(F)F)n(C)c2=O)c1N1CCCC1 [Compound 1-32] , which Post-emerge Herbicidal Activity RICE (crop damage) bin applies?
low range

Query compound follows.
For COc1c(Cl)cc(F)c(-n2c(=O)cc(C(F)(F)F)n(C)c2=O)c1NC(=O)CC#N [2-14] , which Post-emerge Herbicidal Activity RICE (crop damage) bin applies?
mid range
